Below: a set of entries, each annotated with reported IC50 (µg/mL), neutralization of pseudovirus.
experimental-target: HIV-1 Env of isolate MGRM-G-027 (subtype G), on pseudovirus (HIV-1)
assay-notes: cell-based or functional assay
Number only, in µg/mL; omit the unit.

[
  {
    "binder": "PGT-130 (antibody, V domains shown) VH: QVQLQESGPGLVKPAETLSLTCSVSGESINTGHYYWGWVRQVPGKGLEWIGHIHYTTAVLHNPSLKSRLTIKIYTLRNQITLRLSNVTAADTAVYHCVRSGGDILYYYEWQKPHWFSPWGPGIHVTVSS VL: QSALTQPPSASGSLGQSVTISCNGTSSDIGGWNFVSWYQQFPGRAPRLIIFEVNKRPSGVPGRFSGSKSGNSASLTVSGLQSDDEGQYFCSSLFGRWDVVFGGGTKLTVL",
    "measure-unit": "µg/mL",
    "reported-value": 4.14
  }
]

Look up IC50 (µg/mL), neutralization of pseudovirus of PGT-125 (antibody, V domains shown) VH: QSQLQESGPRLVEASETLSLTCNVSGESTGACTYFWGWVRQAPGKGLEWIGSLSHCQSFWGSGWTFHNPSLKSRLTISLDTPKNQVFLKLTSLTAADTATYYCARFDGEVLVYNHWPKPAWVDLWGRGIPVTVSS VL: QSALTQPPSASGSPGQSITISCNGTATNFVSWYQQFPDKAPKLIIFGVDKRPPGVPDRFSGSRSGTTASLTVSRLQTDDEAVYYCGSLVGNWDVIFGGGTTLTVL and report it.
34.4

Give a short answer stating reported IC50 (µg/mL), neutralization of pseudovirus for PGT-137 (antibody, V domains shown) VH: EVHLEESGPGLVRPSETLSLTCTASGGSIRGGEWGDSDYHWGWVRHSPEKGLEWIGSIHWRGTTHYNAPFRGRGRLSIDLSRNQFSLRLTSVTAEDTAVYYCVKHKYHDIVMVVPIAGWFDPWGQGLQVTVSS VL: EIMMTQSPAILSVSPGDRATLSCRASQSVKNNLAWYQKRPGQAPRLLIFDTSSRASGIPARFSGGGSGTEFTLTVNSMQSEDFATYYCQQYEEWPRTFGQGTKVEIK .
0.228
